Target: T1, NPY2 receptor (human (printed as hNPY2R), UniProt P49146 1-381)
T1 sequence (looked up): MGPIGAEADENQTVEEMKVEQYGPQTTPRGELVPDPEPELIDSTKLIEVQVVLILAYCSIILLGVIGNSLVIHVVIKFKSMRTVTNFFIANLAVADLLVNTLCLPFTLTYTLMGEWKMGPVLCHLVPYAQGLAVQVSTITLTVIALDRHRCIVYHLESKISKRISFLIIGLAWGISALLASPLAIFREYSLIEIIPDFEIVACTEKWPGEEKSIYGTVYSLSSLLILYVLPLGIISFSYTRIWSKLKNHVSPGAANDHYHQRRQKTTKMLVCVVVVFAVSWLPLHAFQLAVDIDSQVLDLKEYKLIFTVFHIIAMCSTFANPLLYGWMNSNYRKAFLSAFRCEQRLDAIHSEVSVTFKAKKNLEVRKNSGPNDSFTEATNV
Experiment: cell-based or functional assay
Starred links: 1 amine or outer side, 2 acyl side, 3 side chain; linkers in the order of their positions; H or OH if unused. Non-standard residues stand in square brackets, D forms with d. Groups on a side chain read outwards from the residue. No end group written: not given here. *: point of attachment. C20 diacid = O=C(O)CCCCCCCCCCCCCCCCCCC(=O)*; γGlu = O=C(O)[C@H](CCC(=O)[*:2])N[*:1]; εLys = N[C@@H](CCCCN[*:1])C(=O)[*:2]; Aib = CC(C)(N)C(=O)O
So I've got a bunch of binders here, and I need their EC50 hNPY2R 100% hP (CreLuc) values.
Could you give me the number in nM? Just the number is fine.

EC50 hNPY2R 100% hP (CreLuc) reported for this binder Y[Aib]EGTFTSDYSI[Aib]LEKQAQ[Aib]AFVQWLIK([εLys-γGlu-γGlu-γGlu-γGlu-γGlu-C20 diacid])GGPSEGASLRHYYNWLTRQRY-NH2 (also: TFA salt) [Compound 242] : 28.8

Value of measured EC50 hNPY2R 100% hP (CreLuc) for the entry Y[Aib]EGTFTSDYSI[Aib]LEKQAQ[Aib]AFVQWLIK([γGlu-γGlu-γGlu-γGlu-γGlu-γGlu-C20 diacid])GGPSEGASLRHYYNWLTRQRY-NH2 (also: TFA salt) [Compound 223] : 57.5
